Measurement Notes: recombinant UMI read abundance after kanamycin selection (control-corrected) (log10(CPM+1)); higher = more efficient recombination; extreme values may be limits of the assay; sequences stand for … in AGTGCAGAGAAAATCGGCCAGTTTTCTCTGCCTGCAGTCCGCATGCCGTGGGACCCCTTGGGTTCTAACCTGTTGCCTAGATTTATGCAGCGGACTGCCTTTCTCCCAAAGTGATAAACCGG…AGGTTGGTTTCACT; site = the 11-nt donor;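 further: IS621 bridge recombinase in Escherichia coli cells against a fixed T5 target plasmid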
Measured Attribute: recombinant UMI read abundance (log10)

• CGATCAACATGGACCGGTTTTCCCGGTAATCCGTATTTGGT (site CGATCATCTAG) = 0
• GGACACCCATGGACCGGTTTTCCCGGTAATCCGTATTTGTT (site GGACACCCTAA) = 0.444
• CACCCGACATGGACCGGTTTTCCCGGTAATCCGTATTTGTA (site CACCCGACTTA) = 1.32
• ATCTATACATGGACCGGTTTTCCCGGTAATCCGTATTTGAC (site ATGTATACTGT) = 1.03
• ATTGTGACATGGACCGGTTTTCCCGGTAATCCGTATTTGGT (site ATTGAGACTAC) = 0.524
